inhibition at 3 µM values by entry
- EXPERIMENTAL_SYSTEM: UniProt P51449
- Sequence (P51449 other isoform, or with tags, fused parts or gaps): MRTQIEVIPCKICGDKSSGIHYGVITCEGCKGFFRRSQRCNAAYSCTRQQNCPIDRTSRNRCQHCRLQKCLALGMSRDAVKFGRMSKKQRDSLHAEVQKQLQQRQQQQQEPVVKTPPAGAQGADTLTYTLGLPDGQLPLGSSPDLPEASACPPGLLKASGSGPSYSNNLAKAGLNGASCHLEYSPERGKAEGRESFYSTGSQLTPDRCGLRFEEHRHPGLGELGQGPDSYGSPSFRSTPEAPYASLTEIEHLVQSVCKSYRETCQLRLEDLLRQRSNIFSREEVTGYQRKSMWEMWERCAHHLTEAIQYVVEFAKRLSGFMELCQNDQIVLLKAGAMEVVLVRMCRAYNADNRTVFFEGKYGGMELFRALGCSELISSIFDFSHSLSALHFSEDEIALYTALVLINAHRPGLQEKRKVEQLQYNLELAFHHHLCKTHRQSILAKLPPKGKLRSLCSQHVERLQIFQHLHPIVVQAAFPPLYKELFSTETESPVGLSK
- EXPERIMENTAL_DETAILS: RORγt (full-length human) reporter assay, Conditions B or C
- Assay type: cell-based
- CONDITION_SUMMARY: at 3 μM compound concentration; read-out: RORγt (FL) Reporter Assay B or C, % inhibition
Unit % implied. Number only.

Guide cases for inhibition at 3 µM, answers given:
# MOLECULE, inhibition at 3 µM (%)
data = [
    ("C[C@H](Nc1cc(C(F)F)c(-c2sc(C(=O)N[C@H]3CC[C@H](O)C3)nc2C(=O)N2C3CCC2CC3)cn1)C(F)(F)F [Example 411]", 100),
    ("C[C@H]1CCCN1C(=O)c1nc(C(=O)NCC(C)(C)O)sc1-c1cnc(NC(C)(C)CC(F)(F)F)cc1C(F)F [Example 296]", 108),
    ("C[C@@H](NC(=O)c1nc(C(=O)N2C3CCC2CC3)c(-c2cnc(NC3(C)CCC3)cc2C(F)F)s1)C(C)(C)O [Example 329]", 89),
    ("C[C@H]1CC(F)(F)CN1C(=O)c1nc(C(=O)NCC(C)(C)O)sc1-c1cnc(NCC2(C)CC2)cc1C(F)(F)F [Example 277]", 113),
]

The recorded inhibition at 3 µM for entry CC[C@H](Nc1cc(C(F)F)c(-c2sc(C(=O)N[C@H](C)C(C)(C)O)nc2C(=O)N2CCC[C@@H]2C)cn1)C(F)(F)F [Example 267] equals 102

The recorded inhibition at 3 µM for entry C[C@H]1CC(F)(F)CN1C(=O)c1nc(C(=O)NCC(C)(C)O)sc1-c1cnc(NCC2(C(F)(F)F)CCC2)cc1C(F)F [Example 273] equals 102
